test: recombinant UMI read abundance after kanamycin selection (control-corrected) (log10(CPM+1)); higher = more efficient recombination; extreme values may be limits of the assay; sequences stand for … in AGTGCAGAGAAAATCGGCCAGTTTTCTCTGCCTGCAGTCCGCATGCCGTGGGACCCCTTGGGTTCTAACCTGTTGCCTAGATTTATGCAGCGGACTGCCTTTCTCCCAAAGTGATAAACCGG…AGGTTGGTTTCACT; site = the 11-nt donor
assay.readout: recombinant UMI read abundance (log10)

Sample records with recombinant UMI read abundance (log10):
# residue.string, recombinant UMI read abundance (log10)
measured = [
    ("CGTTAGACATGGACCGGTTTTCCCGGTAATCCGTATTTGCG (site CGTTAGACTCA)", 0.0494),
    ("CACGTCACATGGACCGGTTTTCCCGGTAATCCGTATTTGGG (site CATGTCACTCC)", 0.012),
    ("GGACTAGCATGGACCGGTTTTCCCGGTAATCCGTATTTGTA (site GGACTAGCTTA)", 2.56),
    ("GCCACGACATGGACCGGTTTTCCCGGTAATCCGTATTTGTA (site GCCACGCCTTA)", 0.00858),
]

Consider the sequence CTCTTCTCATGGACCGGTTTTCCCGGTAATCCGTATTTGGG (site CTCTTCTCTCC) and give its measured recombinant UMI read abundance (log10).
0

Cool, now CTCTTCACATGGACCGGTTTTCCCGGTAATCCGTATTTGCT (site CTCTTCACTAG)
2.46

Moving on to the next sequence: CCCATCTCATGGACCGGTTTTCCCGGTAATCCGTATTTGTA (site CCCATCTCTTA)
1.97

Entry AGGATGACATGGACCGGTTTTCCCGGTAATCCGTATTTGCG (site AGGATGACTCG) please
2.3

Query CGGGAACCATGGACCGGTTTTCCCGGTAATCCGTATTTGAT (site CGGGAAGCTAT) next
0

// same read-out, input: GGCCGCCCATGGACCGGTTTTCCCGGTAATCCGTATTTGTT (site GGCCGCCCTAA)
0.00876

What would you report for ATCTCTACATGGACCGGTTTTCCCGGTAATCCGTATTTGAC (site ATCTTTACTGT) ?
0

Continue with CTTAGCTCATGGACCGGTTTTCCCGGTAATCCGTATTTGCT (site CTTAGCTCTAG)
0

Proceed to GTTGTTCCATGGACCGGTTTTCCCGGTAATCCGTATTTGGT (site GATGTTCCTAC)
0.0185

// query: CTGACATCATGGACCGGTTTTCCCGGTAATCCGTATTTGCT (site CCGACATCTAG)
1.39

###

recombinant barcode read abundance (log10) values, listed per item
experiment: recombinant barcode read abundance after kanamycin selection (control-corrected) (log10(CPM+1)); higher = more efficient recombination; sequences stand for … in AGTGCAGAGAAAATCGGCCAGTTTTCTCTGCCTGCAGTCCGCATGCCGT…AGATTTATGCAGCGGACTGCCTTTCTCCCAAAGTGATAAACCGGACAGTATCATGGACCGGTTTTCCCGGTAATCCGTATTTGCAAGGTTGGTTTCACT; site = the 11-nt target
# print the numeric value only

# residue.string, recorded.measurement
rows = [
    ("ACGACTCCTTGGGTTCTAACCTGTTGCTT (site ACGATTCCTAA)", 0.0399),
    ("CTACGATCTTGGGTTCTAACCTGTTGCAC (site CTACGTTCTGT)", 0.365),
    ("CGGATTGCTTGGGTTCTAACCTGTTGCCT (site CGGATGGCTAG)", 0.122),
    ("TATTGGACTTGGGTTCTAACCTGTTGCAC (site TATTGGACTAT)", 0.0463),
    ("GGTTCTCCTTGGGTTCTAACCTGTTGCCT (site GGTTCTCCTAG)", 0.288),
    ("CTACGGTCTTGGGTTCTAACCTGTTGCAC (site CTACGGTCTGT)", 0.404),
]

Could you tell me which recombinant barcode read abundance (log10) is on file for CGACGCACTTGGGTTCTAACCTGTTGCGG (site CGACGCACTCC) ?
0.584

Would you kindly repeat that for CACATACCTTGGGTTCTAACCTGTTGCGT (site CACATACCTCG) ?
0.0777

Repeat for the following sequence: AAATGTACTTGGGTTCTAACCTGTTGCCT (site AAATGTACTAG)
1.04

Another sequence to look at: CGAGACGCTTGGGTTCTAACCTGTTGCCT (site CCATACGCTAG)
0.109

Now try TGGAGCACTTGGGTTCTAACCTGTTGCCT (site TGGATCACTAG) .
0.0861

Please give the result for GGACCATCTTGGGTTCTAACCTGTTGCCT (site GGACTATCTAG) too.
0.276

Another: AGTTAGTCTTGGGTTCTAACCTGTTGCGG (site AATTAGTCTCC)
0.00949

Param item: GCCGTAGCTTGGGTTCTAACCTGTTGCCT (site GTCGTAGCTAG)
0.00812

Do the same for AGGAACACTTGGGTTCTAACCTGTTGCTG (site AGGAACACTAA) please
0.803

Proceed to AGCAGAGCTTGGGTTCTAACCTGTTGCGG (site AGCAGAGCTCC)
1.95

Param item: GAACGACCTTGGGTTCTAACCTGTTGCTT (site GAACGACCTAA)
0.613

Can you check AGAGCCACTTGGGTTCTAACCTGTTGCTA (site GCCATTCCTAT) next?
0.0124

Moving on to GCACTACCTTGGGTTCTAACCTGTTGCCT (site GCACAACCTAG)
0.0611

Cool, now CTGCATACTTGGGTTCTAACCTGTTGCCT (site CTGCATACTAG)
0.86

Cool, now GGTAGGACTTGGGTTCTAACCTGTTGCCT (site GGTAGGACTAG)
0.278

Try this sequence too: CATGATGCTTGGGTTCTAACCTGTTGCCT (site CATGATGCTAG)
1.86

Another sequence: TCGGAGTCTTGGGTTCTAACCTGTTGCAT (site TCGGAGTCTAC)
1.03

Moving on to CTCGATTCTTGGGTTCTAACCTGTTGCAT (site CTCTATTCTAT)
0.213

Please do the same for CAGTCCTCTTGGGTTCTAACCTGTTGCTG (site CAGTCCTCTCA) as well.
2.23

Could you do the same for AGGCGTCCTTGGGTTCTAACCTGTTGCCT (site AGGCGTCCTGG) , please?
1.03

What do you get for AGTCACACTTGGGTTCTAACCTGTTGCTG (site AGTCACACTTA) ?
0

Next sequence: TGGCGTCCTTGGGTTCTAACCTGTTGCCT (site TGGAGTCCTAG)
0.0306
